Taken from patent US10385103B2.

- Test system: RAW 264.7 cells
- assay.details: Quantitative cell-permeability of FITC-labeled aMTD- or rPeptide-fused CRA recombinant proteins (flow cytometry)
- Assay type: cell-based
- condition.details: cell-permeability of aMTD-fused CRA recombinant protein relative to reference CPP (C: MTD85)
# thresholds on Relative Ratio (Fold) C define classes: bucket A = under 3 Fold, bucket B = from 3 Fold up to 5 Fold, bucket C = 5 Fold and over

Past entries and their recorded results:
substance | category.label
643 (LALVLAAPAIVP; Amino acid Sequence of aMTD643) [compound 643] | bucket B
887 (VLAVAPAVAVLP; Amino acid Sequence of aMTD887) [compound 887] | bucket A

INPUT: Category lookup for the substance 622 (ALIVLAAPVAVP; Amino acid Sequence of aMTD622) [compound 622]
OUTPUT: bucket B

INPUT: Category lookup for the substance 744 (AAVVIVAPVALP; Amino acid Sequence of aMTD744) [compound 744]
OUTPUT: bucket B

INPUT: Category lookup for the substance 245 (AAALAPVLALVP; Amino acid Sequence of aMTD245) [compound 245]
OUTPUT: bucket A

INPUT: Category lookup for the substance 241 (AAAVVPVLLVAP; Amino acid Sequence of aMTD241) [compound 241]
OUTPUT: bucket C

INPUT: Category lookup for the substance 482 (ILAVAAIPVAVP; Amino acid Sequence of aMTD482) [compound 482]
OUTPUT: bucket C

INPUT: Category lookup for the substance 443 (ALAALVPVALVP; Amino acid Sequence of aMTD443) [compound 443]
OUTPUT: bucket A

INPUT: Category lookup for the substance 900 (ALVAVIAPVVAP; Amino acid Sequence of aMTD900) [compound 900]
OUTPUT: bucket C

INPUT: Category lookup for the substance 845 (AAVVIAPLLAVP; Amino acid Sequence of aMTD845) [compound 845]
OUTPUT: bucket C
